The reported numbers originate from patent US9340507B2.

target: Human neutrophil elastase (Homo sapiens (Human), UniProt P08246); assay: Human Neutrophil Elastase Assay; conditions: substrate MeOSuc-Ala-Ala-Pro-Val-AMC 250 μM, pH 7.5, fluorescence
Sequence (P08246 30-267): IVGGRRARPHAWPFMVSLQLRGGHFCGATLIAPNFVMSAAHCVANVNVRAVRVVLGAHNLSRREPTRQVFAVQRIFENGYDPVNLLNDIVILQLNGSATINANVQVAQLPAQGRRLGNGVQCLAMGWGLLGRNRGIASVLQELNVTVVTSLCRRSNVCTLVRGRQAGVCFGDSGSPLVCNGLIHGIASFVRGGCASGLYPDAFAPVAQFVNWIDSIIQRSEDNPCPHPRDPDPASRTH
quantity_name: pIC50
pIC50 is a log-scale quantity: -log10 of the concentration expressed in molar.

Q. What reported pIC50 corresponds to Cc1c(-c2cccc(C(F)F)c2)c(=O)c(C(=O)NCc2ccc(N3CCNC3=O)cc2)cn1C(C)C [Example 4.12] on Human neutrophil elastase (Homo sapiens (Human), UniProt P08246)?
A. 7.16

Q. What reported pIC50 corresponds to Cc1c(-c2cccc(C(F)(F)F)c2)c(=O)c(C(=O)NCc2ccc([S+](C)[O-])cc2)cn1C(C)C (single isomer, unassigned) [Example 27.1B] on Human neutrophil elastase (Homo sapiens (Human), UniProt P08246)?
A. 7.52

Q. What reported pIC50 corresponds to CCC(CC)n1cc(C(=O)NCc2ccc(S(C)(=O)=O)cc2)c(=O)c(-c2cccc(C(F)F)c2)c1C [Example 15.2] on Human neutrophil elastase (Homo sapiens (Human), UniProt P08246)?
A. 8.10

Q. What reported pIC50 corresponds to CC[C@@H](C)n1cc(C(=O)NCc2ccc(S(C)(=O)=O)cn2)c(=O)c(-c2cccc(C(F)F)c2)c1C [Example 19.2] on Human neutrophil elastase (Homo sapiens (Human), UniProt P08246)?
A. 8.00

Q. What reported pIC50 corresponds to CCn1cc(C(=O)NCc2ccc(S(C)(=O)=O)cc2)c(=O)c(-c2cccc(C(F)(F)F)c2)c1C [Example 1.1] on Human neutrophil elastase (Homo sapiens (Human), UniProt P08246)?
A. 7.48

Q. What reported pIC50 corresponds to CC[C@H](C)n1cc(C(=O)NCc2ccc(S(C)(=O)=O)cc2)c(=O)c(-c2cccc(C(F)(F)F)c2)c1C [Example 12.1] on Human neutrophil elastase (Homo sapiens (Human), UniProt P08246)?
A. 8.05

Q. What reported pIC50 corresponds to Cc1cc(S(C)(=O)=O)ccc1CNC(=O)c1cn(C(C)C)c(C)c(-c2cccc(C(F)(F)F)c2)c1=O [Example 36] on Human neutrophil elastase (Homo sapiens (Human), UniProt P08246)?
A. 7.72

Q. What reported pIC50 corresponds to Cc1c(-c2cccc(C(F)(F)F)c2)c(=O)c(C(=O)NCc2ccc(S(C)(=O)=O)cc2)cn1CCF [Example 45] on Human neutrophil elastase (Homo sapiens (Human), UniProt P08246)?
A. 7.47

Q. What reported pIC50 corresponds to Cc1c(-c2cccc(C(F)F)c2)c(=O)c(C(=O)NCc2ccc(CN3CCCC3=O)cc2)cn1C(C)C [Example 4.13] on Human neutrophil elastase (Homo sapiens (Human), UniProt P08246)?
A. 7.70

Q. What reported pIC50 corresponds to Cc1c(-c2ccnc(C(F)(F)F)c2)c(=O)c(C(=O)NCc2ccc([S+](C)[O-])cc2)cn1C(C)C (centres unmarked) [Example 27.2] on Human neutrophil elastase (Homo sapiens (Human), UniProt P08246)?
A. 7.29

Q. What reported pIC50 corresponds to Cc1c(-c2cccc(C(F)(F)F)c2)c(=O)c(C(=O)NCc2cnn(C)c2)cn1C(C)C [Example 3.4] on Human neutrophil elastase (Homo sapiens (Human), UniProt P08246)?
A. 7.21

Q. What reported pIC50 corresponds to Cc1c(-c2cccc(C(F)F)c2)c(=O)c(C(=O)NCc2ccc(S(C)(=O)=O)cc2F)cn1C(C)C [Example 35] on Human neutrophil elastase (Homo sapiens (Human), UniProt P08246)?
A. 7.77

Q. What reported pIC50 corresponds to Cc1nnc(CNC(=O)c2cn(C(C)C)c(C)c(-c3cccc(C(F)(F)F)c3)c2=O)o1 [Example 3.1] on Human neutrophil elastase (Homo sapiens (Human), UniProt P08246)?
A. 7.42

Q. What reported pIC50 corresponds to Cc1c(-c2ccnc(C(F)(F)F)c2)c(=O)c(C(=O)NCc2ccc(S(C)(=O)=O)cn2)cn1C(C)C [Example 17.3] on Human neutrophil elastase (Homo sapiens (Human), UniProt P08246)?
A. 7.11

Q. What reported pIC50 corresponds to Cc1c(-c2cccc(C(F)F)c2)c(=O)c(C(=O)NCc2ccc3c(cnn3C)c2)cn1C(C)C [Example 4.7] on Human neutrophil elastase (Homo sapiens (Human), UniProt P08246)?
A. 7.35

Q. What reported pIC50 corresponds to Cc1c(-c2cccc(C(F)F)c2)c(=O)c(C(=O)NCc2ccc(S(C)(=O)=O)cn2)cn1C(C)C [Example 17.2] on Human neutrophil elastase (Homo sapiens (Human), UniProt P08246)?
A. 7.82

Q. What reported pIC50 corresponds to Cc1c(-c2cccc(C(F)F)c2)c(=O)c(C(=O)NCc2cccc(S(C)(=O)=O)c2)cn1C(C)C [Example 4.9] on Human neutrophil elastase (Homo sapiens (Human), UniProt P08246)?
A. 7.20

Q. What reported pIC50 corresponds to CC[C@H](C)n1cc(C(=O)NCc2ccc(S(C)(=O)=O)cc2)c(=O)c(-c2cccc(C(F)F)c2)c1C [Example 12.2] on Human neutrophil elastase (Homo sapiens (Human), UniProt P08246)?
A. 7.92

Q. What reported pIC50 corresponds to Cc1c(-c2cccc(C(F)(F)F)c2)c(=O)c(C(=O)NCc2ccc(C#N)cc2)cn1C(C)C [Example 3.5] on Human neutrophil elastase (Homo sapiens (Human), UniProt P08246)?
A. 7.19

Q. What reported pIC50 corresponds to Cc1c(-c2cccc(C(F)(F)F)c2)c(=O)c(C(=O)NCc2ccncc2)cn1C(C)C [Example 3.2] on Human neutrophil elastase (Homo sapiens (Human), UniProt P08246)?
A. 7.01

Q. What reported pIC50 corresponds to Cc1c(-c2cccc(C(F)F)c2)c(=O)c(C(=O)NCc2ccc([S+](C)[O-])cc2)cn1C(C)C (centres unmarked) [Example 4.8] on Human neutrophil elastase (Homo sapiens (Human), UniProt P08246)?
A. 8.00

Q. What reported pIC50 corresponds to Cc1c(-c2cccc(C(F)(F)F)c2)c(=O)c(C(=O)NCc2ccc(S(N)(=O)=O)cc2)cn1C(C)C [Example 3.7] on Human neutrophil elastase (Homo sapiens (Human), UniProt P08246)?
A. 7.40

Q. What reported pIC50 corresponds to COCCn1cc(C(=O)NCc2ccc(S(C)(=O)=O)cn2)c(=O)c(-c2cccc(C(F)(F)F)c2)c1C [Example 21] on Human neutrophil elastase (Homo sapiens (Human), UniProt P08246)?
A. 7.37

Q. What reported pIC50 corresponds to Cc1c(-c2cccc(C(F)F)c2)c(=O)c(C(=O)NCc2ccc(S(C)(=O)=O)cc2)cn1C1CCCC1 [Example 9.2] on Human neutrophil elastase (Homo sapiens (Human), UniProt P08246)?
A. 7.74

Q. What reported pIC50 corresponds to Cc1nnc(CNC(=O)c2cn(C3CCCC3)c(C)c(-c3cccc(C(F)(F)F)c3)c2=O)o1 [Example 8.1] on Human neutrophil elastase (Homo sapiens (Human), UniProt P08246)?
A. 7.37

Q. What reported pIC50 corresponds to Cc1c(-c2cccc(C(F)(F)F)c2)c(=O)c(C(=O)NCc2cccc(S(C)(=O)=O)c2)cn1C(C)C [Example 3.6] on Human neutrophil elastase (Homo sapiens (Human), UniProt P08246)?
A. 7.05

Q. What reported pIC50 corresponds to Cc1c(-c2cccc(C(F)(F)F)c2)c(=O)c(C(=O)NCc2ccc(S(C)(=O)=O)cc2)cn1CC(F)F [Example 46] on Human neutrophil elastase (Homo sapiens (Human), UniProt P08246)?
A. 7.34

Q. What reported pIC50 corresponds to CC[C@H](C)n1cc(C(=O)NCc2ccc(S(C)(=O)=O)cn2)c(=O)c(-c2ccnc(C(F)(F)F)c2)c1C [Example 20.3] on Human neutrophil elastase (Homo sapiens (Human), UniProt P08246)?
A. 7.20

Q. What reported pIC50 corresponds to Cc1c(-c2cccc(C(F)(F)F)c2)c(=O)c(C(=O)NCc2ccc(S(C)(=O)=O)cn2)cn1C1CCC1 [Example 18.1] on Human neutrophil elastase (Homo sapiens (Human), UniProt P08246)?
A. 7.49
